Assay read-out AC50; system under study: UniProtKB P08908.
Sequence (P08908 whole entry): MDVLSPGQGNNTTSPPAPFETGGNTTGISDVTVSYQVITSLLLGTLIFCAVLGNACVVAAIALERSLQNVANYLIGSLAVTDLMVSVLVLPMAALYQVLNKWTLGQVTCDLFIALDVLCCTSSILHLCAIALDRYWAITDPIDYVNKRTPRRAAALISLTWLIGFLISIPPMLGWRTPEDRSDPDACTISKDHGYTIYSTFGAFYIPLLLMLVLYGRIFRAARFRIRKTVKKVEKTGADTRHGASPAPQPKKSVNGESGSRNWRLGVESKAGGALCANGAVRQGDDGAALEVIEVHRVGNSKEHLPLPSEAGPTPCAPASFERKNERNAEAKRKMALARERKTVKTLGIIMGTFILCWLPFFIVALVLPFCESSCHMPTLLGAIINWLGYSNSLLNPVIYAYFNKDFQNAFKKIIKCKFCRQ

Entry N=C(N)NCc1cccc([123I])c1 [IOBENGUANE I 123] ; AC50 = 2.49 µM

Entry O=[N+]([O-])O[C@H]1CO[C@H]2[C@@H]1OC[C@H]2O[N+](=O)[O-] [ISOSORBIDE DINITRATE] ; AC50 = > 30 µM

Entry O=C(Oc1ccccc1C(=O)O)c1ccccc1O [SALSALATE] ; AC50 = > 30 µM

Entry COc1nccnc1NS(=O)(=O)c1ccc(N)cc1 ; AC50 = > 30 µM

Entry CCOc1ccc2ccccc2c1C(=O)N[C@@H]1C(=O)N2[C@@H]1SC(C)(C)[C@@H]2C(=O)O [NAFCILLIN] ; AC50 = > 30 µM

Entry Cc1onc(-c2c(Cl)cccc2Cl)c1C(=O)N[C@@H]1C(=O)N2[C@@H]1SC(C)(C)[C@@H]2C(=O)O [DICLOXACILLIN] ; AC50 = > 30 µM

Entry CN1CCC[C@H]1c1cccnc1 [NICOTINE] ; AC50 = > 30 µM

Entry N[C@@H](CSSC[C@H](N)C(=O)O)C(=O)O [CYSTINE] ; AC50 = > 30 µM

Entry CC(C)(C)C(=O)NCCCC(=O)O [PIVAGABINE] ; AC50 = > 30 µM

Entry CC(N)CCCC(C)(C)O (stereo not given) [HEPTAMINOL] ; AC50 = > 30 µM

Entry COC(=O)C1=C(C)NC(C)=C(C(=O)O[C@H]2CCN(Cc3ccccc3)C2)[C@H]1c1cccc([N+](=O)[O-])c1 [BARNIDIPINE] ; AC50 = 6.56 µM

Entry C#Cc1cccc(Nc2ncnc3cc(OCCOC)c(OCCOC)cc23)c1 [ERLOTINIB] ; AC50 = > 30 µM

Entry NC(=O)NS(=O)(=O)c1ccc(N)cc1 [SULFACARBAMIDE] ; AC50 = > 30 µM

Entry C1CNCCN1 [PIPERAZINE] ; AC50 = > 30 µM

Entry O=C(CCCN1CC=C(n2c(=O)[nH]c3ccccc32)CC1)c1ccc(F)cc1 [DROPERIDOL] ; AC50 = > 30 µM

Entry CN1CCN(CCCN2c3ccccc3Sc3ccc(S(=O)(=O)N(C)C)cc32)CC1 [THIOPROPERAZINE] ; AC50 = 6.09 µM

Entry CC(C)(N)C(=O)N[C@H](Cc1c[nH]c2ccccc12)C(=O)N[C@H](Cc1c[nH]c2ccccc12)NC=O [MACIMORELIN] ; AC50 = > 30 µM

Entry Nc1ccncc1 [DALFAMPRIDINE] ; AC50 = > 30 µM

Entry Cc1nnc(SCC2=C(C(=O)O)N3C(=O)[C@@H](NC(=O)Cn4cc(Cl)c(=O)c(Cl)c4)[C@H]3SC2)s1 [CEFAZEDONE] ; AC50 = > 30 µM

Entry CN(C)CCC(c1ccccc1)c1ccccn1 (stereo not given) [PHENIRAMINE] ; AC50 = > 30 µM

---

# Target or test system: Progesterone receptor (Homo sapiens); also: assay procedure not described here
# Sequence (P06401 whole entry): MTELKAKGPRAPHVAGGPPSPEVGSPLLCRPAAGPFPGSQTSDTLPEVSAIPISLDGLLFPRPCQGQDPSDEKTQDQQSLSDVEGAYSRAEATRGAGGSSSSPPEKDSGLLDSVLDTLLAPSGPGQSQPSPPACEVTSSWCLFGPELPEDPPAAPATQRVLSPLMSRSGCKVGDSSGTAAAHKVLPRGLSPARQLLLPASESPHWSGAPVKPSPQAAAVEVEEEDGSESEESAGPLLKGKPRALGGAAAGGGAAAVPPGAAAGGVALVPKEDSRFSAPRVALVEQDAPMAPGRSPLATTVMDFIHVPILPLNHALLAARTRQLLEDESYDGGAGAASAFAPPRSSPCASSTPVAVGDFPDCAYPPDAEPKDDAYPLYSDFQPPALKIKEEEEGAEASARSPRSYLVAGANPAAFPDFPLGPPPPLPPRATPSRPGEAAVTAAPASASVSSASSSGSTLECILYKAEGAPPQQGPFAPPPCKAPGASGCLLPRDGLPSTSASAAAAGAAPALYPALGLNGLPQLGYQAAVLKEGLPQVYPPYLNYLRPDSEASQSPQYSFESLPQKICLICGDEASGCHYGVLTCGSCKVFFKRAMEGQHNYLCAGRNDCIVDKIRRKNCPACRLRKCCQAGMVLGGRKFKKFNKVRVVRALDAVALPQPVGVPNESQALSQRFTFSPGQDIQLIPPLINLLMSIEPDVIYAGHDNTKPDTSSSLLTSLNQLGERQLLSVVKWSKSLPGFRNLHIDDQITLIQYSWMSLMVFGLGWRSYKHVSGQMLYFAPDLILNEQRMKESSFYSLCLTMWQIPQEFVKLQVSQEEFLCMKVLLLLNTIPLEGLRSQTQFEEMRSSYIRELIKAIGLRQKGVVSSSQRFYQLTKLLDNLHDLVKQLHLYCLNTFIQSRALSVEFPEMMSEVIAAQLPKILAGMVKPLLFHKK
# Format: functional
Would you mind telling me the reported AC50 of each entry?

Entry CNC(=O)c1cc(Oc2ccc(NC(=O)Nc3ccc(Cl)c(C(F)(F)F)c3)c(F)c2)ccn1 ; AC50 = > 30 µM

Entry CCCCC[C@H](O)/C=C/[C@H]1[C@H](O)CC(=O)[C@@H]1C/C=C\CCCC(=O)O ; AC50 = > 30 µM

Entry COc1cc2nccc(Oc3ccc(NC(=O)Nc4cc(C)on4)c(Cl)c3)c2cc1OC ; AC50 = > 3 µM

Entry COC(=O)[C@H](c1ccccc1Cl)N1CCc2sccc2C1 ; AC50 = > 30 µM

Entry COc1cccc(N(C)C(=S)Oc2ccc3c(c2)CCCC3)n1 [LIRANAFTATE] ; AC50 = > 30 µM

Entry CCN(CC)CC(=O)Oc1ccc(NC(C)=O)cc1 ; AC50 = > 30 µM

Entry CN(C)c1cc(NC(=O)CNC(C)(C)C)c(O)c2c1C[C@H]1C[C@H]3[C@H](N(C)C)C(O)=C(C(N)=O)C(=O)[C@@]3(O)C(O)=C1C2=O ; AC50 = > 30 µM

Entry [H]/N=C(/N)N[C@H]1[C@H](O)[C@@H](O)[C@H](O[C@@H]2O[C@@H](C)[C@](O)(C=O)[C@H]2O[C@@H]2O[C@@H](CO)[C@H](O)[C@@H](O)[C@@H]2NC)[C@@H](N/C(N)=N\[H])[C@@H]1O ; AC50 = > 30 µM

Entry CC1(C)S[C@@H]2[C@H](NC(=O)[C@H](N)c3ccc(O)cc3)C(=O)N2[C@H]1C(=O)O ; AC50 = > 30 µM

Entry CNC(=O)Oc1ccc2c(c1)[C@]1(C)CCN(C)[C@@H]1N2C ; AC50 = > 30 µM

Entry CC(=N)N1CC[C@H](SC2=C(C(=O)O)N3C(=O)[C@H]([C@@H](C)O)[C@H]3C2)C1 ; AC50 = > 300 µM

Entry O=C(Nc1c(Cl)cncc1Cl)c1ccc(OC(F)F)c(OCC2CC2)c1 ; AC50 = > 30 µM

Entry C[C@@H]1C[C@H]2[C@@H]3C[C@H](F)C4=CC(=O)C=C[C@]4(C)[C@@]3(F)[C@@H](O)C[C@]2(C)[C@H]1C(=O)CO ; AC50 = 0.052 µM

Entry CC(NCCc1ccc(O)cc1)C(O)c1ccc(O)cc1 (configuration not stated) ; AC50 = > 30 µM

Entry CS(=O)(=O)OCCCCOS(C)(=O)=O ; AC50 = > 30 µM

Entry [H]/N=C(\N/C(=N/[H])NCCCCCCNC(=N)NC(=N)Nc1ccc(Cl)cc1)Nc1ccc(Cl)cc1 ; AC50 = > 30 µM

Entry NS(=O)(=O)c1cc2c(cc1C(F)(F)F)NC(Cc1ccccc1)NS2(=O)=O (configuration not stated) [BENDROFLUMETHIAZIDE] ; AC50 = > 10 µM

Entry CCCNC(C)C(=O)Nc1ccccc1C (configuration not stated) ; AC50 = > 30 µM

Entry CNCC[C@@H](Oc1ccccc1C)c1ccccc1 ; AC50 = > 30 µM

Entry CC(=O)Oc1ccccc1C(=O)Nc1ncc([N+](=O)[O-])s1 [NITAZOXANIDE] ; AC50 = > 30 µM

Entry CCOC(=O)NNc1ccc(N(CC)CC(C)O)nn1 (configuration not stated) ; AC50 = > 30 µM

Entry COc1c(O[C@@H]2O[C@H](CO)[C@@H](O)[C@H](O)[C@H]2O)cc2c(c1OC)-c1ccc(SC)c(=O)cc1[C@@H](NC(C)=O)CC2 [THIOCOLCHICOSIDE] ; AC50 = > 30 µM

Entry NS(=O)(=O)c1cc(C(=O)O)cc(N2CCCC2)c1Oc1ccccc1 [PIRETANIDE] ; AC50 = > 30 µM

Entry Cc1ccc(NC(=O)C2(c3ccc4c(c3)OC(F)(F)O4)CC2)nc1-c1cccc(C(=O)O)c1 ; AC50 = > 30 µM

Entry N=C(N)c1ccc2cc(OC(=O)c3ccc(N=C(N)N)cc3)ccc2c1 ; AC50 = > 30 µM

Entry CCC(=O)OCC(=O)[C@@]1(OC(=O)CC)[C@@H](C)C[C@H]2[C@@H]3CCC4=CC(=O)C=C[C@]4(C)[C@@]3(F)[C@@H](O)C[C@@]21C [BETAMETHASONE DIPROPIONATE] ; AC50 = 0.3 µM

Entry O=C(O)c1cc(O)c2c3nc4ccccc4oc-3cc(=O)c2n1 ; AC50 = > 30 µM

Entry Cc1cc2nc3c(=O)[nH]c(=O)nc-3n(C[C@H](O)[C@H](O)[C@H](O)COP(=O)(O)O)c2cc1C [RIBOFLAVIN 5'-PHOSPHATE] ; AC50 = > 30 µM

Entry CC(=O)/N=c1/sc(S(N)(=O)=O)nn1C [METHAZOLAMIDE] ; AC50 = > 10 µM

Entry CCOC(=O)Nc1ccc2c(c1)N(C(=O)CCN1CCOCC1)c1ccccc1S2 ; AC50 = > 30 µM

Entry Clc1ccc(C(Cn2ccnc2)OCc2ccc(Sc3ccccc3)cc2)c(Cl)c1 (configuration not stated) ; AC50 = > 30 µM

Entry CO[C@@]1(NC(=O)Cc2cccs2)C(=O)N2C(C(=O)O)=C(COC(N)=O)CS[C@@H]21 ; AC50 = > 30 µM

---

Measured endpoint: AC50

Value (AC50, Muscarinic acetylcholine receptor M2 (Homo sapiens, UniProt P08172)) for record CNC(=O)C[C@@H](N)C(=O)N[C@@H](C(=O)N[C@@H]1C(=O)N2[C@@H]1SC(C)(C)[C@@H]2C(=O)O)c1ccc(O)cc1 = > 30 µM

Value (AC50, Muscarinic acetylcholine receptor M2 (Homo sapiens, UniProt P08172)) for record Cc1nnc(SCC2=C(C(=O)O)N3C(=O)[C@@H](NC(=O)Cn4cc(Cl)c(=O)c(Cl)c4)[C@H]3SC2)s1 = > 30 µM

Value (AC50, Muscarinic acetylcholine receptor M2 (Homo sapiens, UniProt P08172)) for record N[C@@H](CSSC[C@H](N)C(=O)O)C(=O)O = > 30 µM

Value (AC50, Muscarinic acetylcholine receptor M2 (Homo sapiens, UniProt P08172)) for record CN(C)CCCN1C(=O)c2cc([N+](=O)[O-])ccc2Oc2ccccc21 = 20.6 µM

Value (AC50, Muscarinic acetylcholine receptor M2 (Homo sapiens, UniProt P08172)) for record C[C@@H](O)[C@H]1C(=O)N2C(C(=O)O)=C([C@H]3CCCO3)S[C@H]12 = > 30 µM

Value (AC50, Muscarinic acetylcholine receptor M2 (Homo sapiens, UniProt P08172)) for record O=C(Nc1cccc2c(=O)cc(-c3nnn[nH]3)oc12)c1ccc(OCCCCc2ccccc2)cc1 = > 30 µM

Value (AC50, Muscarinic acetylcholine receptor M2 (Homo sapiens, UniProt P08172)) for record CC[C@H]1OC(=O)[C@H](C)[C@@H](O[C@H]2C[C@@](C)(OC)[C@@H](O)[C@H](C)O2)[C@H](C)[C@@H](O[C@@H]2O[C@H](C)C[C@H](N(C)C)[C@H]2O)[C@](C)(OC)C[C@@H](C)C(=O)[C@H](C)[C@@H](O)[C@]1(C)O = > 30 µM

Value (AC50, Muscarinic acetylcholine receptor M2 (Homo sapiens, UniProt P08172)) for record O=C(O)CC(O)(CC(=O)O)C(=O)O = > 30 µM

Value (AC50, Muscarinic acetylcholine receptor M2 (Homo sapiens, UniProt P08172)) for record O=C(O)c1cc(=O)c2ccccc2o1 = > 30 µM

Value (AC50, Muscarinic acetylcholine receptor M2 (Homo sapiens, UniProt P08172)) for record Cc1ccc([C@@H]2O[C@H](CO)[C@@H](O)[C@H](O)[C@H]2O)cc1Cc1ccc(-c2ccc(F)cc2)s1 [CANAGLIFLOZIN ANHYDROUS] = > 30 µM

Value (AC50, Muscarinic acetylcholine receptor M2 (Homo sapiens, UniProt P08172)) for record CN(C)c1cc(CNCC(C)(C)C)c(O)c2c1C[C@H]1C[C@H]3[C@H](N(C)C)C(O)=C(C(N)=O)C(=O)[C@@]3(O)C(O)=C1C2=O = 9.2 µM

Value (AC50, Muscarinic acetylcholine receptor M2 (Homo sapiens, UniProt P08172)) for record CN(C)CCN(Cc1ccc(Cl)cc1)c1ccccn1 = 2.88 µM

Value (AC50, Muscarinic acetylcholine receptor M2 (Homo sapiens, UniProt P08172)) for record CCN(CC)CCOC(=O)C(Cc1cccc2ccccc12)CC1CCCO1 (configuration not stated) = 0.199 µM

Value (AC50, Muscarinic acetylcholine receptor M2 (Homo sapiens, UniProt P08172)) for record N[C@@H](CC(=O)O)C(=O)O = > 30 µM

Value (AC50, Muscarinic acetylcholine receptor M2 (Homo sapiens, UniProt P08172)) for record Nc1nc(N)nc(Nc2ccc([As]3SCC(CO)S3)cc2)n1 (configuration not stated) = > 30 µM

Value (AC50, Muscarinic acetylcholine receptor M2 (Homo sapiens, UniProt P08172)) for record CC1(C)O[C@@H]2C[C@H]3[C@@H]4CCC5=CC(=O)CC[C@]5(C)[C@@]4(F)[C@@H](O)C[C@]3(C)[C@]2(C(=O)CCl)O1 [HALCINONIDE] = > 30 µM

Value (AC50, Muscarinic acetylcholine receptor M2 (Homo sapiens, UniProt P08172)) for record CC(C)COc1ccc(CNC(=O)N(Cc2ccc(F)cc2)C2CCN(C)CC2)cc1 = 4.6 µM

Provenance of the data: ChEMBL document CHEMBL5291721
